Value source: ChEMBL document CHEMBL1759929

- protocol summary: Oral bioavailability in rat at 10 mg/kg
- Format: ADME, organism-based
- assay context: in vivo
property name: bioavailability (%)
Response body: numeric value in %, unit text excluded.

Note to self: bioavailability recorded for Cc1ccc(C(=O)c2nc3ccccc3n2/C=C/c2cccc(OC(C)(C)C(=O)[O-])c2)cc1.[Na+] was 110

----------
- protocol summary: Volume of distribution in rat at 1 mg/kg, iv
- Type: ADME, organism-based
- Set-up: dose 1 mg/kg, route intravenous
- assay context: in vivo
property name: Vd (L/kg)
Response body: numeric value in L/kg, unit text excluded.

Note to self: Vd recorded for Cc1ccc(C(=O)c2nc3ccccc3n2/C=C/c2cccc(OC(C)(C)C(=O)[O-])c2)cc1.[Na+] was 0.747

----------
- protocol summary: Cmax in rat at 10 mg/kg, po
- Assay type: ADME, organism-based
- Parameters: dose 10 mg/kg, route oral
- assay context: in vivo
property name: Cmax (ng/mL)
Response body: numeric value in ng/mL, unit text excluded.

Note to self: Cmax recorded for Cc1ccc(C(=O)c2nc3ccccc3n2/C=C/c2cccc(OC(C)(C)C(=O)[O-])c2)cc1.[Na+] was 4340

----------
- protocol summary: Half life in rat at 1 mg/kg, iv
- Format: ADME, organism-based
- Design: dose 1 mg/kg, route intravenous
- assay context: in vivo
property name: half-life

Note to self: half-life recorded for Cc1ccc(C(=O)c2nc3ccccc3n2/C=C/c2cccc(OC(C)(C)C(=O)[O-])c2)cc1.[Na+] was 1.45 h

----------
- measurement target: Peroxisome proliferator-activated receptor alpha (Homo sapiens)
- protocol summary: Partial agonist activity at human PPARalpha expressed in CHO cells co-transfected with Gal4-responsive luciferase reporter plasmid after 24 hrs by transactivation assay relative to fenofibric acid
- Assay type: functional, cell-based
- Set-up: concentration or dose not given beside the values
Reported Activity values follow for various compounds
Response body: numeric value in %, unit text excluded.

Guide cases for Activity, answers given:
{"columns": ["smiles code", "Activity / %"],
 "data": [
  ["Cc1ccc(C(=O)c2nccn2C/C=C/c2cccc(OC(C)(C)C(=O)O)c2)cc1", 56],
  ["Cc1ccc(C(=O)c2nc3ccccc3n2/C=C/c2cccc(OC(C)(C)C(=O)O)c2)cc1", 44],
  ["CC(C)(Oc1ccc(C(=O)c2ccc(Cl)cc2)cc1)C(=O)O", 100]
]}

Note to self: Activity recorded for Cc1ccc(C(=O)c2nc(C)c(C)n2C/C=C/c2cccc(OC(C)(C)C(=O)O)c2)cc1 was 60

Note to self: Activity recorded for Cc1ccc(C(=O)c2nc3c(n2C/C=C/c2cccc(OC(C)(C)C(=O)O)c2)CCCC3)cc1 was 60

Note to self: Activity recorded for Cc1ccc(C(=O)c2nc3ccccc3n2C/C=C/c2cccc(OC(C)(C)C(=O)O)c2)cc1 was 42

----------
- measurement target: Peroxisome proliferator-activated receptor gamma (Homo sapiens, UniProt P37231)
- Sequence (P37231 whole entry): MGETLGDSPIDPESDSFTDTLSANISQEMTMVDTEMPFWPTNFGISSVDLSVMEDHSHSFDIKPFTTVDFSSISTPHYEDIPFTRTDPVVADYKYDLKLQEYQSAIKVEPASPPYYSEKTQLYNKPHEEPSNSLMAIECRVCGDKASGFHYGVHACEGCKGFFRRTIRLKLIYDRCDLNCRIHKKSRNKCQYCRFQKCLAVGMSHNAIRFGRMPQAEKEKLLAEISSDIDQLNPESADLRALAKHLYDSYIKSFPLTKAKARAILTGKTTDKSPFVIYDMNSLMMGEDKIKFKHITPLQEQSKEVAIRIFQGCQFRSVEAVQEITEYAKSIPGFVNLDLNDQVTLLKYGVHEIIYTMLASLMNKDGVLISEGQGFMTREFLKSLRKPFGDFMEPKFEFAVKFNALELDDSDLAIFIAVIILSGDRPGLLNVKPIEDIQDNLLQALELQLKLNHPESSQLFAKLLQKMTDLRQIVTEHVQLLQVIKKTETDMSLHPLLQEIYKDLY
- protocol summary: Partial agonist activity at human PPARgamma expressed in CHO cells co-transfected with Gal4-responsive luciferase reporter plasmid after 24 hrs by transactivation assay
property name: pEC50
In plain terms, pEC50 is the concentration in mol/L turned into minus its base-10 logarithm.

Guide cases for pEC50, answers given:
{"columns": ["smiles code", "pEC50"],
 "data": [
  ["Cc1ccc(C(=O)c2nc3ccccc3n2-c2cccc(OC(C)(C)C(=O)O)c2)cc1", 5.48],
  ["Cc1ccc(C(=O)c2nccn2C/C=C/c2cccc(OC(C)(C)C(=O)O)c2)cc1", 4.92],
  ["Cc1ccc(C(=O)c2nc3ccccc3n2Cc2cccc(OC(C)(C)C(=O)O)c2)cc1", 5.22],
  ["Cc1ccc(C(=O)c2nc3ccccc3n2C/C=C/c2cccc(OC(C)(C)C(=O)O)c2)cc1", 5.77]
]}

Note to self: pEC50 recorded for Cc1ccc(C(=O)c2nc3c(n2C/C=C/c2cccc(OC(C)(C)C(=O)O)c2)CCCC3)cc1 was 5.52

Note to self: pEC50 recorded for Cc1ccc(C(=O)c2nc(C)c(C)n2C/C=C/c2cccc(OC(C)(C)C(=O)O)c2)cc1 was 5.32

Note to self: pEC50 recorded for Cc1ccc(C(=O)c2nc3ccccc3n2/C=C/c2cccc(OC(C)(C)C(=O)O)c2)cc1 was 6.89

Note to self: pEC50 recorded for Cc1ccc(C(=O)c2nc3ccccc3n2C/C=C/c2cccc(OCC(=O)O)c2)cc1 was 5.34

----------
- measurement target: Peroxisome proliferator-activated receptor alpha (Homo sapiens, UniProt Q07869)
- Sequence (Q07869 whole entry, the tested form may be a part): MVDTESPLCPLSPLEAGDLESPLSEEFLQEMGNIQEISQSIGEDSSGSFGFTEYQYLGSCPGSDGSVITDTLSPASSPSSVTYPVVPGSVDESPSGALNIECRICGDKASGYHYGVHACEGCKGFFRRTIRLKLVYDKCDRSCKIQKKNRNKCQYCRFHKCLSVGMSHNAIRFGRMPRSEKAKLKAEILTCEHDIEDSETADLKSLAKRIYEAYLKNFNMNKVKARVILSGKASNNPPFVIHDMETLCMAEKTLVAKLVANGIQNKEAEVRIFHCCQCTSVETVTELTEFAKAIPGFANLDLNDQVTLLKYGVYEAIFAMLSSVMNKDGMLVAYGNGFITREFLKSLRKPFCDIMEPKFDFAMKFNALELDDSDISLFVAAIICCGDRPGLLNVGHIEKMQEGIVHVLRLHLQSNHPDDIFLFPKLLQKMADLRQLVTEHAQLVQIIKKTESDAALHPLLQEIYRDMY
- protocol summary: Partial agonist activity at human PPARalpha expressed in CHO cells co-transfected with Gal4-responsive luciferase reporter plasmid after 24 hrs by transactivation assay
property name: EC50 (µM)
Response body: numeric value in µM, unit text excluded.

Guide cases for EC50, answers given:
{"columns": ["smiles code", "measurement target", "unit abbreviation", "quantitative readout"],
 "data": [
  ["Cc1ccc(C(=O)c2nccn2C/C=C/c2cccc(OC(C)(C)C(=O)O)c2)cc1", "Peroxisome proliferator-activated receptor alpha (Homo sapiens, UniProt Q07869)", "µM", 0.62],
  ["Cc1ccc(C(=O)c2nc3ccccc3n2C/C=C/c2cccc(OC(C)(C)C(=O)O)c2)cc1", "Peroxisome proliferator-activated receptor alpha (Homo sapiens, UniProt Q07869)", "µM", 3.6],
  ["Cc1ccc(C(=O)c2nc(C)c(C)n2C/C=C/c2cccc(OC(C)(C)C(=O)O)c2)cc1", "Peroxisome proliferator-activated receptor alpha (Homo sapiens, UniProt Q07869)", "µM", 3.6],
  ["Cc1ccc(C(=O)c2nc3c(n2C/C=C/c2cccc(OC(C)(C)C(=O)O)c2)CCCC3)cc1", "Peroxisome proliferator-activated receptor alpha (Homo sapiens, UniProt Q07869)", "µM", 3.6]
]}

Now for the molecule whose EC50 we want.
Note to self: EC50 recorded for Cc1ccc(C(=O)c2nc3ccccc3n2/C=C/c2cccc(OC(C)(C)C(=O)O)c2)cc1 was 2.4
